- measurement_target: acto-Myo1C^0-ΔTH1 (no Tpm) (Homo sapiens)
- protocol_details: stopped-flow, pyrene-actin fluorescence, K0.[…] of fast phase vs [ATP]
- Assay type: binding
assay_readout: pKd
Give bare numbers, as −log10 of the molar value.

Task: GET /values?readout=pKd&item= `Nc1ncnc2c1ncn2[C@@H]1O[C@H](COP(=O)(O)OP(=O)(O)OP(=O)(O)O)[C@@H](O)[C@H]1O`
Output: 3.81
